# TARGET: RecQ-like DNA helicase BLM (Homo sapiens) (UniProt P54132)
# Sequence (P54132 whole entry, looked up): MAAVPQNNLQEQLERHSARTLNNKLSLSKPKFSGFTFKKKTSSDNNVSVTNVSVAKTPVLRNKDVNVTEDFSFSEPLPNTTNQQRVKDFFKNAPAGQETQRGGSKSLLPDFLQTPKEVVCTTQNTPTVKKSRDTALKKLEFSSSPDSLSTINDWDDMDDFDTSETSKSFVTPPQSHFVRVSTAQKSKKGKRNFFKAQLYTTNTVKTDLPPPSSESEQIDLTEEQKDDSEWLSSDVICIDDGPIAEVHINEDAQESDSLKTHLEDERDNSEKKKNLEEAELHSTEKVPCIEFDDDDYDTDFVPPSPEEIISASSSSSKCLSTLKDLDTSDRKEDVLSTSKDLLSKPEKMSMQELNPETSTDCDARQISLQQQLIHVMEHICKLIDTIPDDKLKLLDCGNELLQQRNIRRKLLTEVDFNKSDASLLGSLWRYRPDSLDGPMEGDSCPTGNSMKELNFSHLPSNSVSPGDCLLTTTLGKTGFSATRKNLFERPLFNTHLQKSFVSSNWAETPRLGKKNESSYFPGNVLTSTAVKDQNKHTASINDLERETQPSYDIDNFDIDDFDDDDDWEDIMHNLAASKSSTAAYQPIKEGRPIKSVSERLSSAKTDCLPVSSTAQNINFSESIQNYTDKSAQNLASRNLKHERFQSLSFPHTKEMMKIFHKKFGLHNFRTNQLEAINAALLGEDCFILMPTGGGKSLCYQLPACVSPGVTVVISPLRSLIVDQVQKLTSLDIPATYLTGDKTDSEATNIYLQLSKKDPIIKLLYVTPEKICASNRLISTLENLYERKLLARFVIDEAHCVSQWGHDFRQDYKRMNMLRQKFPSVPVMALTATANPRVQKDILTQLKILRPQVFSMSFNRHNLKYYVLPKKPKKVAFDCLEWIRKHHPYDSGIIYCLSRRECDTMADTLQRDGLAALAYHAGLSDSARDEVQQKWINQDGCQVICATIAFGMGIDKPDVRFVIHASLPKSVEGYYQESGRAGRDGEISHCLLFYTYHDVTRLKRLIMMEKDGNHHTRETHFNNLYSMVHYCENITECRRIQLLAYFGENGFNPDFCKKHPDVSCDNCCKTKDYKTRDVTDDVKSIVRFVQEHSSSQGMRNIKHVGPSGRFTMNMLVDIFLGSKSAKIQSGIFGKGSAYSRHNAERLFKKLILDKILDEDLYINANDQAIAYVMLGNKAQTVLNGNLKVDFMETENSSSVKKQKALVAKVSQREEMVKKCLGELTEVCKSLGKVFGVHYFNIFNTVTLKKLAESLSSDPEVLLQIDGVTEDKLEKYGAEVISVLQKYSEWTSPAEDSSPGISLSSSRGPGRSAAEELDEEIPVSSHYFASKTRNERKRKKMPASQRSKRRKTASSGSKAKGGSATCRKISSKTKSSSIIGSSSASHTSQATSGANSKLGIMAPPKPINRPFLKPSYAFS
# ASSAY COMMENT: qHTS for Inhibitors of Bloom's syndrome helicase (BLM): Helicase DNA unwinding fluorescent orthogonal confirmatory assay for SAR
# EXPERIMENTAL CONTEXT: fluorescence, orthogonal confirmation; series mostly up to 55.6 µM
# Description: Human RecQ DNA helicases participate in maintenance of genome stability and DNA repair. While other types of helicases have been explored as targets for drug development, members of the RecQ family have remained less well characterized. Mutations of the Bloom helicase gene have been associated with the rare human genetic disease called Bloom syndrome. […] A fluorescence-based, biochemical assay in 1536 well format was developed to evaluate inhibition of BLM DNA unwinding activity. […]
Inconclusive results are not listed. The source made the active and inactive calls. Calls follow the shape of the dose curve; as a rule, active = well fitted inhibition curve with a large enough effect; inconclusive = small, poorly fitted or top-dose-only effect; inactive = no such curve, though single readings can be large or run the other way.
Response enum: T (active), F (inactive)

Request: What was the test verdict on "Cc1cc(Nc2c(Nc3nnc(-c4ccncc4)s3)c(=O)c2=O)ccc1Cl" ?
Result: T

Request: Dear all, I need the recorded test outcome for "O=C(Nc1ccc(Cl)c(C(F)(F)F)c1)Nc1nnc(-c2cccnc2)s1" , thank you.
Result: T

Request: Dear all, I need the recorded test outcome for "O=C(Nc1ccc(Cl)c(Cl)c1)Nc1nnc(-c2ccncc2)o1" , thank you.
Result: F

Request: Tell me the assay call for "O=C(Nc1ccc(Br)cc1)Nc1nnc(-c2ccncc2)s1" please.
Result: T

Request: Recorded call for "N/C(=N\c1nnc(-c2ccncc2)s1)Nc1ccc(F)c(C(F)(F)F)c1" ?
Result: T

Request: Give the logged outcome of this assay for the following molecule: "N#Cc1cc(NC(=O)Nc2cccc(-c3ccncc3)n2)ccc1Cl"
Result: T

----------
# TARGET: RecQ-like DNA helicase BLM (Homo sapiens)
# ASSAY COMMENT: qHTS for Inhibitors of Bloom's syndrome helicase (BLM): Helicase DNA unwinding fluorescent orthogonal confirmatory assay for SAR
# EXPERIMENTAL CONTEXT: fluorescence, orthogonal confirmation; series mostly up to 55.6 µM
# Text: Human RecQ DNA helicases participate in maintenance of genome stability and DNA repair. While other types of helicases have been explored as targets for drug development, members of the RecQ family have remained less well characterized. Mutations of the Bloom helicase gene have been associated with the rare human genetic disease called Bloom syndrome. […] A fluorescence-based, biochemical assay in 1536 well format was developed to evaluate inhibition of BLM DNA unwinding activity. […]
Results filed as inconclusive are left out. Active and inactive are the calls of the source. Calls follow the shape of the dose curve; as a rule, active = well fitted inhibition curve with a large enough effect; inconclusive = small, poorly fitted or top-dose-only effect; inactive = no such curve, though single readings can be large or run the other way.
ENDPOINT LABEL: Potency

Use these answered entries as a reference point.
# SMILES, TARGET, ENDPOINT LABEL, RESULT
records = [
    ("O=C(Nc1ccc(F)c(C(F)(F)F)c1)Nc1cccc(-c2ccncc2)n1", "RecQ-like DNA helicase BLM (Homo sapiens)", "Potency", "4.47 µM (active)"),
    ("O=C(Nc1ccc(Cl)nc1)Nc1nnc(-c2ccncc2)s1", "RecQ-like DNA helicase BLM (Homo sapiens)", "Potency", "6.31 µM (active)"),
    ("O=C(Nc1ccc(Cl)c([N+](=O)[O-])c1)Nc1nnc(-c2ccncc2)s1", "RecQ-like DNA helicase BLM (Homo sapiens)", "Potency", "1 µM (active)"),
    ("O=C(Nc1ccc2ccccc2c1)Nc1nnc(-c2ccc(Cl)cc2)s1", "RecQ-like DNA helicase BLM (Homo sapiens)", "Potency", "inactive"),
    ("CC(C)(C)NC(=O)Nc1nnc(-c2ccncc2)s1", "RecQ-like DNA helicase BLM (Homo sapiens)", "Potency", "inactive"),
]

Next compound, Potency to be filled in.
Item: "O=C(Nc1ccc2sccc2c1)Nc1nnc(-c2cccnc2)s1" | Potency: 10 µM (active)
